Numbers sourced from ChEMBL document CHEMBL2163252.

- assayedSystem: Growth hormone secretagogue receptor type 1 (Homo sapiens)
- Sequence (Q92847 whole entry): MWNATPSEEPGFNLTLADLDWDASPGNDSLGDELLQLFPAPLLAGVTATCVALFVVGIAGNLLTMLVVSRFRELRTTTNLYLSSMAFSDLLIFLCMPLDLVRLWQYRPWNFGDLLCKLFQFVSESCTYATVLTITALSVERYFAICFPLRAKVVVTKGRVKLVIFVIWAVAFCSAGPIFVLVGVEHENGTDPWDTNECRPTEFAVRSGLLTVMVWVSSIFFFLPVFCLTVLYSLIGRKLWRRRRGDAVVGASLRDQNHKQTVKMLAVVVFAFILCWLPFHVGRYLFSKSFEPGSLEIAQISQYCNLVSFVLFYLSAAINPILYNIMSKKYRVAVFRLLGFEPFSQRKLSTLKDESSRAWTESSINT
- procedureSummary: Displacement of [125I]ghrelin expressed in LLC-PK1 cells incubated for 1 hr by gamma counting method
Starred links: 1 amine or outer side, 2 acyl side, 3 side chain; linkers in the order of their positions; H or OH if unused. Non-standard residues stand in square brackets, D forms with d. Residues, ends and D or L forms follow the SMILES beside them. Haic = O=C1[C@@H](N[*:1])CCc2cccc3c2N1[C@H](C(=O)[*:2])C3; dTrp(2-Me) = Cc1[nH]c2ccccc2c1C[C@@H](N)C(=O)O
experimentalReadout: pIC50
One number for each entry, as −log10 of the molar value.

# annotated cases, reported pIC50 shown
Cc1[nH]c2ccccc2c1C[C@@H](NC(=O)[C@@H](N)Cc1cnc[nH]1)C(=O)N[C@@H](C)C(=O)N[C@@H](Cc1c[nH]c2ccccc12)C(=O)N[C@H](Cc1ccccc1)C(=O)N[C@@H](CCCCN)C(N)=O [EXAMORELIN] (H-H[dTrp(2-Me)]AW[dF]K-NH2); 7.80
Cc1[nH]c2ccccc2c1C[C@@H](NC(=O)[C@@H]1Cc2cccc3c2N1C(=O)[C@@H](N)CC3)C(=O)N[C@H](CCCCN)C(=O)N[C@@H](Cc1c[nH]c2ccccc12)C(=O)N[C@H](Cc1ccccc1)C(=O)N[C@@H](CCCCN)C(N)=O (Haic-[dTrp(2-Me)][dK]W[dF]K-NH2); 6.12

Lab note: next compound to report on.
Request: I'd like to know its pIC50. The compound in question is CC(C)CN(NC(=O)[C@@H](Cc1c[nH]c2ccccc12)NC(=O)CN)C(=O)N[C@@H](Cc1c[nH]c2ccccc12)C(=O)N[C@H](Cc1ccccc1)C(=O)N[C@@H](CCCCN)C(N)=O
Response: 5.27
